# measuredTarget: furin, P09958;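 further: purified furin at 1:10 enzyme:substrate in 50 mM HEPES pH 7.5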
# Sequence (P09958 whole entry): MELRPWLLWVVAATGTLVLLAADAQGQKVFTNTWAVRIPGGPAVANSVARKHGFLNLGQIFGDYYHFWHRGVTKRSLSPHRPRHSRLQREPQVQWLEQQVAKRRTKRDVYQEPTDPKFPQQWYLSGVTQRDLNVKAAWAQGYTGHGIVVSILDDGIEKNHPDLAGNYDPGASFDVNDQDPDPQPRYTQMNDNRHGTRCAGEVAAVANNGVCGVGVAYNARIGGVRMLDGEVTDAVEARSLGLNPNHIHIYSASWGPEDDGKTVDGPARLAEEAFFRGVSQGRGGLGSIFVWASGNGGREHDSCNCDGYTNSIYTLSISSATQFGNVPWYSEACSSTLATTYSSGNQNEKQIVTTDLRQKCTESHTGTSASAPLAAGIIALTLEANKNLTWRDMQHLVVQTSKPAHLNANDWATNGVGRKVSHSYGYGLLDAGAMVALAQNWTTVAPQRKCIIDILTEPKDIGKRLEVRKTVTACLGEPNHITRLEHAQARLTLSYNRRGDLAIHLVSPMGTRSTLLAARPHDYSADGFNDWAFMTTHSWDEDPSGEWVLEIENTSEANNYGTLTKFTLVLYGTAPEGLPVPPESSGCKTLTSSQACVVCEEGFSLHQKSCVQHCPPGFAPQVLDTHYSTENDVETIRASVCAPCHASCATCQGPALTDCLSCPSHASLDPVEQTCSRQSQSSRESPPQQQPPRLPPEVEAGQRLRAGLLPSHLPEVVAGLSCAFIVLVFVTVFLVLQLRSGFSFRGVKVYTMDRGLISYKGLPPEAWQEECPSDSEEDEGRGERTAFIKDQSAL
# experiment: furin cleavage Z-score vs untreated control; higher = more cleavage, active = 3.5 or more, inactive = 1 or less, 8 variable residues between constant flanks
# condition: 7.5 min
The other results are listed elsewhere or left out. The true hit rate is not given.
propertyLabel: furin cleavage Z-score
Form field (numeric): enter value without unit.

>>> readoutnumber("CANGFRHARNAGNASASA [FS-466]")
-0.528

query: Form field: reported furin cleavage Z-score of CATTPCSGSSAGNASASA [HC1937]
result: -1.48

query: Next sequence up: CAPNSRLARNAGNASASA [FS-475]
result: 6.58

query: Next record, please: CAEVPTSTWVAGNASASA [HC2199]
result: 0.334
